- Tested on: Vero E6 cells
- conditions: substances solubilized in DMSO, luminescence kit for quantification of viable cells

{"columns": ["molecule", "assay-target", "concentrations tolerated by the cells, ng/mL"],
 "data": [
  ["C[C@@H]1O[C@@H](O[C@H]2[C@H](O[C@H]3CC[C@@]4(C)[C@@H](CC[C@]5(C)[C@@H]4CC=C4[C@@H]6CC(C)(C)CC[C@]6(C(=O)O)CC[C@]45C)[C@]3(C)CO)OC[C@@H](O)[C@@H]2O)[C@H](O)[C@H](O)[C@H]1O [α-hederine]", "Vero E6 cells", 7500],
  ["CC1=CC(=O)C(C(C)C)=CC1=O [thymoquinone]", "Vero E6 cells", 7500],
  ["COc1cc(/C=C/C(=O)/C=C(O)/C=C/c2ccc(O)c(OC)c2)ccc1O [curcumin]", "Vero E6 cells", 15000],
  ["Cc1cc(O)c2c(c1)C(=O)c1cc(O)cc(O)c1C2=O [emodin]", "Vero E6 cells", 60000]
]}

// provenance: patent US20240237641A1
